- tgt: T1, alpha-s1 casein from Bos taurus
- T1 chain: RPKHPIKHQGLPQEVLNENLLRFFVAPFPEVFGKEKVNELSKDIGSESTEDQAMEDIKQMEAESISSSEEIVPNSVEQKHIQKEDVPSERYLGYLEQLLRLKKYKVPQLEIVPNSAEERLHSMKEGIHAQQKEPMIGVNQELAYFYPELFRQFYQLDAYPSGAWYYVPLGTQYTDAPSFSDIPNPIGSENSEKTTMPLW
Listed here: items and their measured (αSN1-1)/(αSN1), 24 hours, 11° C..
Give a plain numeric answer without units written out.

camel chymosin variant #165 (L295W) (protein) GKVAREPLTSYLDSQYFGKIYIGTPPQEFTVVFDTGSSDLWVPSIYCKSNVCKNHHRFDPRKSSTFRNLGKPLSIHYGTGSMEGFLGYDTVTVSNIVDPNQTVGLSTEQPGEVFTYSEFDGILGLAYPSLASEYSVPVFDNMMDRHLVARDLFSVYMDRNGQGSMLTLGAIDPSYYTGSLHWVPVTLQQYWQFTVDSVTINGVAVACVGGCQAILDTGTSVLFGPSSDILKIQMAIGATENRYGEFDVNCGNLRSMPTVVFEINGRDYPLSPSAYTSKDQGFCTSGFQGDNNSEWWILGDVFIREYYSVFDRANNRVGLAKAI : 6.7

For reference, reported (αSN1-1)/(αSN1), 24 hours, 11° C. for camel chymosin variant #152 (D290G) (protein) GKVAREPLTSYLDSQYFGKIYIGTPPQEFTVVFDTGSSDLWVPSIYCKSNVCKNHHRFDPRKSSTFRNLGKPLSIHYGTGSMEGFLGYDTVTVSNIVDPNQTVGLSTEQPGEVFTYSEFDGILGLAYPSLASEYSVPVFDNMMDRHLVARDLFSVYMDRNGQGSMLTLGAIDPSYYTGSLHWVPVTLQQYWQFTVDSVTINGVAVACVGGCQAILDTGTSVLFGPSSDILKIQMAIGATENRYGEFDVNCGNLRSMPTVVFEINGRDYPLSPSAYTSKDQGFCTSGFQGGNNSELWILGDVFIREYYSVFDRANNRVGLAKAI stands at 3.4
